molecular target: T1, Mu HER3: CD33-[Murine HER3, residues 20-643]-TAG (murine, UniProt Q61526 20-643); test: SET, IgG vs soluble HER3-Tag
T1 construct: also called mu HER3-Tag; not shown: C-terminal TAG (e.g., FLAG TAG)
T1 sequence (Q61526 20-643): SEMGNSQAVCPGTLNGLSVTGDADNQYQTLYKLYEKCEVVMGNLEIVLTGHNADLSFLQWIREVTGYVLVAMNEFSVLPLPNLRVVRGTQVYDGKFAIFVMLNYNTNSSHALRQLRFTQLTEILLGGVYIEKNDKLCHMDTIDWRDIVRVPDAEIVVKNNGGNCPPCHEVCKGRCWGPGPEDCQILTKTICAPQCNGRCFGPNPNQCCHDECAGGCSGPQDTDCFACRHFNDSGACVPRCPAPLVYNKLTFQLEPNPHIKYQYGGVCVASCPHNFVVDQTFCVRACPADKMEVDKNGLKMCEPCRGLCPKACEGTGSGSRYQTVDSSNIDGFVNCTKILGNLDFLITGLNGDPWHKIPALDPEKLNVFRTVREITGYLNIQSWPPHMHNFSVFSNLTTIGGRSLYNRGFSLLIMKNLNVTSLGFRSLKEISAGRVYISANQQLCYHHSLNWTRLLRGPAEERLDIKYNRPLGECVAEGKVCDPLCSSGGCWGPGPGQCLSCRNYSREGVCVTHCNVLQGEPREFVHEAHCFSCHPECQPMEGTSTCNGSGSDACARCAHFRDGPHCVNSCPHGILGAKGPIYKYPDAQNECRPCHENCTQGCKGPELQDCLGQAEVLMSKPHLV

# Binder, Unit, Kd
rows = [
    ("MOR14535 (antibody, human IgG1, kappa, V domains shown, tested as IgG) VH: EVQLVQSGAEVKKPGESLKISCKGSGYSFTTTWVAWVRQMPGKGLEWMGIIYPGLSDTIYSPSFQGQVTISADKSISTAYLQWSSLKASDTAMYYCARVHIIQPPSAWSYNAMDVWGQGTLVTVSS VL: DIQMTQSPSSLSASVGDRVTITCRASQSISTYLNWYQQKPGKAPKLLIYGASNLQSGVPSRFSGSGSGTDFTLTISSLQPEDFATYYCQQSITELFTFGQGTKVEIKR", "pM", 125),
    ("MOR12616 (antibody, human IgG1, kappa, V domains shown, tested as IgG) VH: QVQLVQSGAEVKKPGESLKISCKGSGYSFTNSWVAWVRQMPGKGLEWMGIIYPGNSDTIYSPSFQGQVTISADKSISTAYLQWSSLKASDTAMYYCARVHIIQPPSAWSYNAMDVWGQGTLVTVSS VL: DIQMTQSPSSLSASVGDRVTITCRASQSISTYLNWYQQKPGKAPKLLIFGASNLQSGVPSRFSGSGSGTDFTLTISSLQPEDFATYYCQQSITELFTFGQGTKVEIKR", "pM", 41),
    ("MOR12925 (antibody, human IgG1, kappa, V domains shown, tested as IgG) VH: QVQLVQSGAEVKKPGESLKISCKGSGYSFSNYWIAWVRQMPGKGLEWMGIIYPGNSDTIYSPSFQGQVTISADKSISTAYLQWSSLKASDTAMYYCARVHIIQPPSAWSYNAMDVWGQGTLVTVSS VL: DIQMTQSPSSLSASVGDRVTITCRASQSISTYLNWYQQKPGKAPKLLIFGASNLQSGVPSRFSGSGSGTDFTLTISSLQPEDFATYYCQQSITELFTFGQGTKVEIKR", "pM", 38),
]
